Tested on: HMC 1-8 low-A1 cells, caspase-3/7 luminescence, 3 h
experiment_description: caspase activation in low-A1 HMC 1-8 cells, dose response, counter-screen for A1 inhibitor project, cell-based, caspase luminescence (AID 449755)
Results filed as inconclusive are left out. Activity calls are given as the source filed them.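 How the source made its calls: active means compounds raising caspase signal whose fitted AC50 is at most ten times the top tested dose; inconclusive means flat fit with 30 to 70% activity, or failed fit; inactive means the rest.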
compounds and their reported AC50

- CCc1ccc(NC(=O)c2nc(S(=O)(=O)Cc3ccccc3)ncc2Cl)cc1: > 35 µM (inactive)

Tested on HMC 1-8 low-A1 cells, caspase-3/7 luminescence, 3 h: COc1ccccc1C(=O)Nc1ccnn1C1CCN(Cc2cn(C)c3ccccc23)CC1 . Observed AC50: > 35 µM (inactive)

Tested on HMC 1-8 low-A1 cells, caspase-3/7 luminescence, 3 h: Cc1ccc(C)c(S(=O)(=O)NCC(=O)Nc2sc3c(c2C(N)=O)CCC(C)C3)c1 (stereo not given) . Observed AC50: > 35 µM (inactive)

Tested on HMC 1-8 low-A1 cells, caspase-3/7 luminescence, 3 h: COc1cc(C(=O)Nc2cc3c(cc2N2CCCCC2)n(C)c(=O)n3C)cc(OC)c1OC . Observed AC50: > 35 µM (inactive)
